Consider the following compounds and their measured pIC50 readings.
MEASURED_ON: human Gal-1 (hGal-1)
Sequence (P09382 2-135 limits assumed): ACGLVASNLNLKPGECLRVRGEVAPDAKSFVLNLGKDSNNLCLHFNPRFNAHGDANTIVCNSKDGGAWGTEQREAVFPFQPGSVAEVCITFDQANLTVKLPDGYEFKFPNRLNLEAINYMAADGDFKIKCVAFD
ASSAY_DETAILS: Competitive binding assay: binding of biotinylated hGal-1 to microplate-adsorbed asialofetuin (ASF)
CONDITION_CONTEXT: Activities on hGal-1; mean values of several measurements
// pIC50 is dimensionless: -log10 of concentration (M)

Here are 5 compounds together with their reported answers.
input: Fill in the blank: the reported pIC50 of CO[C@@H]1[C@@H](n2cc(-c3ccc(Cl)c(F)c3)nn2)[C@@H](O)[C@@H](CO)O[C@@H]1CC1CC(C2CCN(C(=O)OC(C)(C)C)CC2)=NO1 (stereo partly drawn) is ____.
output: 5.76

input: Requested field: pIC50. Item: CO[C@@H]1[C@@H](n2cc(-c3cc(F)c(F)c(F)c3)nn2)[C@@H](O)[C@@H](CO)O[C@@H]1Cc1cc(C2CCN(S(C)(=O)=O)CC2)on1
output: 6.31

input: Item COc1ccc(F)cc1-c1cn([C@H]2[C@@H](O)[C@@H](CO)O[C@H](CC3CC(C4CCN(C(=O)OC(C)(C)C)CC4)=NO3)[C@@H]2O)nn1 (stereo partly drawn) has what recorded pIC50?
output: 5.06

input: What does the record list as pIC50 for CC(C)(C)c1cc(C[C@H]2O[C@H](CO)[C@H](O)[C@H](n3cc(-c4cc(F)c(F)c(F)c4)nn3)[C@H]2O)no1 ?
output: 5.60

input: State the recorded pIC50 for this entry: CO[C@@H]1[C@@H](n2cc(-c3ccc(C)c(F)c3F)nn2)[C@@H](O)[C@@H](CO)O[C@@H]1Cc1cn(C(C)(C)C)nn1
output: 6.14

Now for another entry.
input: So what does the record say about pIC50 for CO[C@@H]1[C@@H](n2cc(-c3cc(F)c(F)c(F)c3)nn2)[C@@H](O)[C@@H](CO)O[C@@H]1Cn1cc(C2(C)CCCC2)nn1 ?
output: 5.41
